# targetEntity: T1, Ep-CAM (UniProt P16422 24-265, limits assumed)
# T1 sequence (looked up): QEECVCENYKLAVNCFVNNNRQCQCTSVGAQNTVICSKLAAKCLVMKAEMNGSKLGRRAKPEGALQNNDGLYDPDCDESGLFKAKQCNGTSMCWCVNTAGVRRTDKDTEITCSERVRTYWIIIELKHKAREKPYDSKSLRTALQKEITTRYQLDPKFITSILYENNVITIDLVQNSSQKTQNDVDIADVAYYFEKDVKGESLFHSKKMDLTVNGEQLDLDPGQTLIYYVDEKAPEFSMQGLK
# experimentalProtocol: Biacore, Fab periplasmic extract on immobilised Epcam
outcomeMeasure: binding result

- binder: "ING-1 Fab, heavy chain T53G (Fab, V domains shown, Fab in periplasmic extract) VH: QIQLVQSGPELKKPGETVKISCKASGYTFTKYGMNWVKQAPGKGLKWMGWINGYTEEPTYGDDFKGRFAFSLETSASTANLQINNLKSEDTATYFCARFGSAVDYWGQGTSVTVSS VL: DIVMTQAAFSNPVTLGTSGSISCRSSKSLLHSNGITYLYWYLQKPGQSPQLLIYQMSNLASGVPDRFSSSGSGTDFTLRISRVEAEDVGVYYCAQNLELPRTFGGGTKLEMKR"
  recordedValue: "no binding"
- binder: "ING-1 Fab, heavy chain D104P (Fab, V domains shown, Fab in periplasmic extract) VH: QIQLVQSGPELKKPGETVKISCKASGYTFTKYGMNWVKQAPGKGLKWMGWINTYTEEPTYGDDFKGRFAFSLETSASTANLQINNLKSEDTATYFCARFGSAVPYWGQGTSVTVSS VL: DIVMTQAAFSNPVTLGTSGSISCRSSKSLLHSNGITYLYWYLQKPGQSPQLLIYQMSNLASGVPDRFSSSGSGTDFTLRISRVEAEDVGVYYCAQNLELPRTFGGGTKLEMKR"
  recordedValue: "no binding"
